# test_target: Nsp9COV19 (15N-labeled) (SARS-CoV-2, UniProt P0DTD1 4141-4253)
# test_method_notes: 15N-1H HSQC NMR titration
pKd: −log10 of the molar value.
quantity_kind: pKd

- binder: "UUGGAGUU (ssRNA) [RNA.2 (8 nt ssRNA)]"
  readout_value: "~3.26"
